# ASSAYED TARGET: Muscarinic acetylcholine receptor
# ASSAY SUMMARY: Binding affinity to muscarinic acetylcholine receptor was determined in presence of [3H]QNB radioligand (in vitro)
# Format: protein assay
Ki: recorded values

MOLECULE	ASSAYED TARGET	RELATION QUALIFIER	Ki (µM)
CC(=O)N(C)C(C)C#CCn1ccnc1 (stereo not given)	Muscarinic acetylcholine receptor	=	1.5
CN(C)C(=O)N(C)CC#CCN1CCCC1	Muscarinic acetylcholine receptor	=	0.14
Cc1cncn1CC#CCn1ccn(C)c1=O	Muscarinic acetylcholine receptor	=	0.614
COC(=O)N(C)C(C)C#CCN(C)C (stereo not given)	Muscarinic acetylcholine receptor	>	10
Cc1cncn1CC#CC(C)N1CCCC1=O (stereo not given)	Muscarinic acetylcholine receptor	=	0.0168
CN1CCN(CC#CCN2CCCC2)C1=O	Muscarinic acetylcholine receptor	=	0.18
O=C1CCCN1CC#CCn1cccn1	Muscarinic acetylcholine receptor	>	10
CN(C)CC#CCN1CCCC1=O	Muscarinic acetylcholine receptor	=	2.6
CC(=O)N(C)CC#CCn1cncc1C	Muscarinic acetylcholine receptor	=	0.172
Cc1cn(CC#CCN2CCCC2=O)c(C)n1	Muscarinic acetylcholine receptor	=	0.16
CC(=O)N(C)CC#CCn1ccnc1	Muscarinic acetylcholine receptor	>	10
Cc1cncn1CC#CCN(C)C(=O)N(C)C	Muscarinic acetylcholine receptor	>	10
CCOC(=O)N(C)C(C)C#CCn1ccnc1 (stereo not given)	Muscarinic acetylcholine receptor	>	10
COC(=O)N(C)C(C)C#CCn1cncc1C (stereo not given)	Muscarinic acetylcholine receptor	=	0.097
CN(C)CC#CCN1CCNC1=O	Muscarinic acetylcholine receptor	>	10
O=C1OCCN1CC#CCn1ccnc1	Muscarinic acetylcholine receptor	=	0.929
CC1CCC(=O)N1CC#CCN1CCCC1 (stereo not given)	Muscarinic acetylcholine receptor	=	0.014
COC(=O)N(C)CC#CCN1CCCC1	Muscarinic acetylcholine receptor	=	0.55
O=C1CCCN1CC#CCn1cncn1	Muscarinic acetylcholine receptor	>	10
CC1CCC(=O)N1CC#CCn1ccnc1 (stereo not given)	Muscarinic acetylcholine receptor	=	0.171
CC(C#CCN(C)C)N1CCCC1=O (stereo not given)	Muscarinic acetylcholine receptor	=	1.702
CC(=O)N(C)CC#CCN1CCCC1	Muscarinic acetylcholine receptor	=	0.26
CC(C#CCn1ccnc1)N1CCN(C)C1=O (stereo not given)	Muscarinic acetylcholine receptor	=	4.009
Cn1ccn(CC#CCn2ccnc2)c1=O	Muscarinic acetylcholine receptor	>	10
O=C1CCCN1CC#CCn1cnc2ccccc21	Muscarinic acetylcholine receptor	>	10
Cc1c[n+](C)cn1CC#CCN1CCCC1=O.[I-]	Muscarinic acetylcholine receptor	=	0.303
Cc1cn(CC#CCN2CCCC2=O)cn1	Muscarinic acetylcholine receptor	=	0.377
CC(C#CCn1ccnc1)N1CCCC1=O (stereo not given)	Muscarinic acetylcholine receptor	=	0.556
CC(=O)NCC#CCn1cncc1C	Muscarinic acetylcholine receptor	>	10
O=C1OCCN1CC#CCN1CCCC1	Muscarinic acetylcholine receptor	=	1.362
COC(=O)N(C)CC#CCN(C)C	Muscarinic acetylcholine receptor	>	10
O=C1CCCN1CC#CCn1ccnc1	Muscarinic acetylcholine receptor	=	0.6
O=C1NCCN1CC#CCn1ccnc1	Muscarinic acetylcholine receptor	>	10
Cc1cncn1CC#CCN1CCN(C)C1=O	Muscarinic acetylcholine receptor	=	0.381
Cc1cncn1CC#CCN1CCCC1=O	Muscarinic acetylcholine receptor	=	0.064
Cc1cncn1CC#CCN1CCNC1=O	Muscarinic acetylcholine receptor	>	10
COC(=O)N(C)CC#CCn1cncc1C	Muscarinic acetylcholine receptor	=	1.001
CN(C)CC#CCN1CCN(C)C1=O	Muscarinic acetylcholine receptor	=	0.18
CC(=O)N(C)C(C)C#CCn1cncc1C (stereo not given)	Muscarinic acetylcholine receptor	=	0.184
CCOC(=O)N(C)C(C)C#CCN1CCCC1 (stereo not given)	Muscarinic acetylcholine receptor	=	0.11
COC(=O)N(C)C(C)C#CCn1ccnc1 (stereo not given)	Muscarinic acetylcholine receptor	=	1.355
CN(C)CC#CCn1ccn(C)c1=O	Muscarinic acetylcholine receptor	>	10
CC(=O)NCC#CCn1ccnc1	Muscarinic acetylcholine receptor	>	10
COC(=O)NCC#CCn1cncc1C	Muscarinic acetylcholine receptor	=	6.825
Cn1ccn(CC#CCN2CCCC2)c1=O	Muscarinic acetylcholine receptor	=	0.51
CCOC(=O)N(C)CC#CCn1ccnc1	Muscarinic acetylcholine receptor	>	10
CCOC(=O)N(C)C(C)C#CCn1cncc1C (stereo not given)	Muscarinic acetylcholine receptor	=	0.568
CCOC(=O)N(C)CC#CCN1CCCC1	Muscarinic acetylcholine receptor	=	4.219
CN1CCN(CC#CCn2ccnc2)C1=O	Muscarinic acetylcholine receptor	=	1.868
Cc1cncn1CC#CCN1CCOC1=O	Muscarinic acetylcholine receptor	=	0.151

---

# ASSAYED TARGET: Muscarinic acetylcholine receptor (Rattus norvegicus) (UniProt P08482+P08483+P08485+P08911+P10980)
# ASSAY SUMMARY: Ratio of Ki value for QNB to that of Ki value for Oxo-M.
# Format: protein assay
Below, each entry is listed with its recorded Ki ratio.
QUANTITY MEASURED: Ki ratio

COMPOUND	QUANTITATIVE RESULT
Cc1cn(CC#CCN2CCCC2=O)c(C)n1	2.4
CCOC(=O)N(C)CC#CCN1CCCC1	65
CC(C#CCN1CCCC1)N1CCCC1=O (stereo not given)	13
CN(C)CC#CCN1CCCC1=O	2360
CC(C#CCN1CCCC1)N1CCN(C)C1=O (stereo not given)	10
CC(C#CCn1ccnc1)N1CCN(C)C1=O (stereo not given)	33
CC(=O)N(C)C(C)C#CCn1ccnc1 (stereo not given)	125
CCOC(=O)N(C)C(C)C#CCN1CCCC1 (stereo not given)	5
Cc1cn(CC#CCN2CCCC2=O)cn1	37
CC(C#CCN(C)C)N1CCCC1=O (stereo not given)	65
CCc1nccn1CC#CCN1CCCC1=O	2
CN(C)CC#CCN1CCN(C)C1=O	40
CN1CCN(CC#CCN2CCCC2)C1=O	67
Cc1nccn1CC#CCN1CCCC1=O	13
CC(=O)N(C)C(C)C#CCn1cncc1C (stereo not given)	18

---

# ASSAYED TARGET: Muscarinic acetylcholine receptor
# ASSAY SUMMARY: Binding affinity to muscarinic acetylcholine receptor was determined in presence of [3H]QNB radioligand (in vitro)
# Type: protein assay

COMPOUND	Ki
CN(C)C(=O)N(C)CC#CCn1ccnc1	> 10000 nM
COC(=O)N(C)C(C)C#CCN1CCCC1 (stereo not given)	64 nM
CC(=O)N(C)CC#CCN(C)C	> 10000 nM
Cc1cncn1CC#CCN1C(=O)CCC1C (stereo not given)	11.6 nM
O=C1CCCN1CC#CCN1CCCC1	193 nM
CC(=O)N(C)C(C)C#CCn1ccnc1C (stereo not given)	19 nM
O=C1NCCN1CC#CCN1CCCC1	800 nM
CN(C)CC#CCN(C)C(=O)N(C)C	> 10000 nM
COC(=O)N(C)CC#CCn1ccnc1	> 10000 nM
Cc1nccn1CC#CCN1CCCC1=O	3.8 nM
CC(C#CCN1CCCC1)N1CCN(C)C1=O (stereo not given)	130 nM
CCOC(=O)N(C)CC#CCn1cncc1C	568 nM
CC(C#CCN1CCCC1)N1CCCC1=O (stereo not given)	14 nM
CC1CCC(=O)N1CC#CCN(C)C (stereo not given)	690 nM
CCc1nccn1CC#CCN1CCCC1=O	56.9 nM

---

In this section, each of the compounds is paired with its reported Ki ratio.
# ASSAYED TARGET: Muscarinic acetylcholine receptor (Rattus norvegicus) (UniProt P08482+P08483+P08485+P08911+P10980)
# ASSAY SUMMARY: Ratio of Ki value for QNB to that of Ki value for Oxo-M.
# Format: protein assay
QUANTITY MEASURED: Ki ratio

COMPOUND	QUANTITY MEASURED	QUANTITATIVE RESULT
O=C1CCCN1CC#CCN1CCCC1	Ki ratio	386
CN(C)C(=O)N(C)CC#CCN1CCCC1	Ki ratio	39
Cc1cncn1CC#CCN1CCOC1=O	Ki ratio	8.4
CCOC(=O)N(C)C(C)C#CCn1cncc1C (centres undefined)	Ki ratio	3.6
O=C1CCCN1CC#CCn1ccnc1	Ki ratio	460
CC(=O)N(C)C(C)C#CCn1ccnc1C (centres undefined)	Ki ratio	12
Cc1c[n+](C)cn1CC#CCN1CCCC1=O.[I-]	Ki ratio	5.7
Cc1cncn1CC#CCN1C(=O)CCC1C (centres undefined)	Ki ratio	6.9
Cc1cncn1CC#CCn1ccn(C)c1=O	Ki ratio	16
COC(=O)N(C)C(C)C#CCn1cncc1C (centres undefined)	Ki ratio	10
O=C1OCCN1CC#CCN1CCCC1	Ki ratio	153
Cn1ccn(CC#CCN2CCCC2)c1=O	Ki ratio	72
COC(=O)N(C)C(C)C#CCn1ccnc1 (centres undefined)	Ki ratio	104
CCOC(=O)N(C)CC#CCn1cncc1C	Ki ratio	3.6
